Measured target: Prostaglandin G/H synthase 2 (Ovis aries) (UniProt P79208)
Sequence (P79208 whole entry): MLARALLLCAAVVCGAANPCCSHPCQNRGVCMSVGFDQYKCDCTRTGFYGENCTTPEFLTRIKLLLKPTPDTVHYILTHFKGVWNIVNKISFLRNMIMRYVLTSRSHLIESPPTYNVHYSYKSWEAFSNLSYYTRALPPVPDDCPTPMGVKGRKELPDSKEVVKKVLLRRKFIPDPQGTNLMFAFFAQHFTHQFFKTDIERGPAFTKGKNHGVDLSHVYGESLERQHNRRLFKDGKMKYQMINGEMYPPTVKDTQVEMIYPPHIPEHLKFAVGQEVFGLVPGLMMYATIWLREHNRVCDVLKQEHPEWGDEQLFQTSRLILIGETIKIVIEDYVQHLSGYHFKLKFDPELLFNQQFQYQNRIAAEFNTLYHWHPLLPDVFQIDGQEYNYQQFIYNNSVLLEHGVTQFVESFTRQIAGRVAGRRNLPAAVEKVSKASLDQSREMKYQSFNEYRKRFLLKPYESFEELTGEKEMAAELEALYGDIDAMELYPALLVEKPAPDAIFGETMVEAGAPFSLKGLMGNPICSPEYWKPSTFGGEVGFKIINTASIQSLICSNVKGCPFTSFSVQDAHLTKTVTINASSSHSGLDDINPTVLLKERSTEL
Test details: Inhibition of ovine COX-2 assessed as using arachidonic acid as substrate at 10 uM preincubated for 5 mins prior to substrate addition measured after 2 hrs by enzyme immunoassay relative to control
Assay context: in the assay text read “after 2 mins” for “after 2 hrs”
Here the recorded inhibition is given for each entry.

These solved cases illustrate the format of a correct answer.
1) COc1ccccc1/C=C1\OC(=O)C(c2ccc(F)cc2)=C1c1ccc(S(C)(=O)=O)cc1
45.6%
2) CS(=O)(=O)c1ccc(C2=C(c3ccc(F)cc3)C(=O)O/C2=C\c2ccc(O)cc2)cc1
19.5%
3) CS(=O)(=O)c1ccc(C2=C(c3ccccc3Cl)C(=O)O/C2=C\c2ccccc2)cc1
59.1%

Entry `CS(=O)(=O)c1ccc(C2=C(c3ccccc3)C(=O)O/C2=C\c2ccc(O)cc2)cc1` under Prostaglandin G/H synthase 2 (Ovis aries) (UniProt P79208) had inhibition of 14.4%

These data points were gathered from ChEMBL document CHEMBL2401696.
